Value source: patent USRE39420E1

TEST_TARGET: Human Recombinant Cyclooxygenase-2 (Homo sapiens, UniProt P35354)
Construct: made in house; host or cells: COS cells (transient expression; microsomes prepared after 66 hours)
Sequence (P35354 18-604): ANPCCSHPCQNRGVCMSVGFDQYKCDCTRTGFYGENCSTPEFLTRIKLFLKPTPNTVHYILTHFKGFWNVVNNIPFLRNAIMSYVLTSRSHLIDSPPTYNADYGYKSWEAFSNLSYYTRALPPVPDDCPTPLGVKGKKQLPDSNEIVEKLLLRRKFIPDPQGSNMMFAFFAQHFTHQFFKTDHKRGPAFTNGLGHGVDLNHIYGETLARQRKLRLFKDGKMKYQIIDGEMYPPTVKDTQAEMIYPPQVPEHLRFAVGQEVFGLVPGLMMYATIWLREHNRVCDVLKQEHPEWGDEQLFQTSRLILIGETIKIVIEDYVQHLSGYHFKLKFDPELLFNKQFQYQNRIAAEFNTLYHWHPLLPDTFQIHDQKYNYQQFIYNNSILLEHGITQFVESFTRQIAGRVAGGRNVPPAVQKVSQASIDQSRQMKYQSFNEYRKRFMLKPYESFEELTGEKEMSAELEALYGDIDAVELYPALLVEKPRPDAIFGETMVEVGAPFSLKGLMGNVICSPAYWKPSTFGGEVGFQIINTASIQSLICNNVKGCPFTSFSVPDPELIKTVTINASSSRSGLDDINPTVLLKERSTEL
TEST: Inhibitory activity on human recombinant cyclooxygenase-2 microsomes from COS cells (PGE2 ELISA)
Assay type: biochemical
APPLIED_CONDITIONS: ratio of IC50 COX-1/COX-2
PROPERTY_MEASURED: Selectivity (COX-1/COX-2)

SUBSTANCE_SMILES	TEST_TARGET	NUMBER
COc1ccc(-n2cc(C)cc2-c2ccc(S(N)(=O)=O)cc2)cc1	Human Recombinant Cyclooxygenase-2 (Homo sapiens, UniProt P35354)	153

(I) COc1ccc(-c2c(C)ccn2-c2ccc(S(N)(=O)=O)cc2)cc1
(II) Cc1cc(-c2ccc(Cl)cc2)n(-c2ccc(S(N)(=O)=O)cc2)c1
Dear colleague, could you let me know whether I or II has the lower recorded Selectivity (COX-1/COX-2)? Thanks. Select an item and report its label.
I
(I: 120, II: 867)
